- ASSAY_TARGET: Recombinant human mPGES-1 (Homo sapiens, UniProt O14684)
- Construct: made in house; host or cells: CHO cells (crude microsomal fractions)
- EXPERIMENT_DESCRIPTION: In-vitro screening of mPGES-1 inhibitors (inhibition of PGE2 formation from PGH2, HTRF detection)
- Format: biochemical
- MEASUREMENT_SETUP: 10 μM test compound; mPGES-1 enzyme, crude microsomal fractions; read-out: Percentage inhibition at 10 μM
Examples of compounds with documented inhibition at 10 µM follow.
Report as a plain number; the unit % is understood.

// worked examples, inhibition at 10 µM included
>>> assay_result("O=c1[nH]c(-c2c(F)cccc2Cl)nn1-c1ccc(C#Cc2ccncc2Cl)cc1")
95.8
>>> assay_result("COc1cc(-c2nn(-c3c(Cl)cccc3Cl)c(=O)[nH]2)ccc1NC(=O)c1ccc(C(F)(F)F)cc1")
89.5
>>> assay_result("O=C(Nc1ccc(C(F)(F)F)cc1)c1ccc(-n2nc(-c3c(F)cccc3Cl)[nH]c2=O)cc1")
85.8
>>> assay_result("O=C(NCc1ccccc1C(F)(F)F)c1ccc(-n2nc(-c3c(F)cccc3Cl)[nH]c2=O)cc1")
98.1

Indicate its recorded inhibition at 10 µM; the compound in question is COc1cc(-n2nc(-c3c(Cl)cccc3Cl)[nH]c2=O)ccc1C(=O)Nc1ccc(S(C)(=O)=O)cc1
96.3

Indicate its recorded inhibition at 10 µM; the compound in question is CC(C)(C)S(=O)(=O)NCc1ccc(Cl)c(-c2nn(-c3ccc(C(F)(F)F)cc3)c(=O)[nH]2)c1
94

Indicate its recorded inhibition at 10 µM; the compound in question is COc1ccc(-n2nc(-c3c(F)cccc3Cl)[nH]c2=O)cc1C(=O)NCC1CC1
29.7

Indicate its recorded inhibition at 10 µM; the compound in question is O=C(Nc1cccc(C(F)(F)F)c1)c1ccc(-n2nc(-c3c(F)cccc3Cl)[nH]c2=O)cc1
98.6

Indicate its recorded inhibition at 10 µM; the compound in question is COc1cc(-n2nc(-c3c(Cl)cccc3Cl)[nH]c2=O)ccc1-c1nc(-c2ccc(Cl)cc2)no1
96.3

Indicate its recorded inhibition at 10 µM; the compound in question is CC(C)C(=O)NCc1ccc(Cl)c(-n2nc(-c3ccc(C#CC4CC4)c(F)c3)[nH]c2=O)c1
99.5

Indicate its recorded inhibition at 10 µM; the compound in question is COc1cc(-n2nc(-c3cc(CNC(=O)C4CC4)ccc3Cl)[nH]c2=O)ccc1C(=O)Nc1ccc(F)c(C(F)F)c1
94.8

Indicate its recorded inhibition at 10 µM; the compound in question is Cc1ccc(CNC(=O)[C@H]2CCCO2)c(C)c1-c1nn(-c2ccc(C(F)(F)F)cc2)c(=O)[nH]1
90.5

###

- ASSAY_TARGET: Recombinant human mPGES-1 (Homo sapiens, UniProt O14684)
- Construct: made in house; host or cells: CHO cells (crude microsomal fractions)
- Sequence (O14684 1-152): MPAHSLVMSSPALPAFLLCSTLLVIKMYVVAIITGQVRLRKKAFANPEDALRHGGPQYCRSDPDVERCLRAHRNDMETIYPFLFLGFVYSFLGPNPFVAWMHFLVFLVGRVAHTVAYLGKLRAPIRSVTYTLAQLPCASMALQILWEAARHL
- EXPERIMENT_DESCRIPTION: In-vitro screening of mPGES-1 inhibitors (inhibition of PGE2 formation from PGH2, HTRF detection)
- Type: biochemical
- MEASUREMENT_SETUP: 10 μM test compound; mPGES-1 enzyme, crude microsomal fractions; read-out: Percentage inhibition at 10 μM
METRIC_NAME: inhibition at 10 µM (%)
Report as a plain number; the unit % is understood.

>>> assay_result("CC(C)S(=O)(=O)NCc1cnc(C(F)F)c(-c2nn(-c3ccc(C(F)(F)F)cc3)c(=O)[nH]2)c1")
99.3
>>> assay_result("COc1cc(-n2nc(-c3c(C)cccc3Cl)[nH]c2=O)ccc1C(=O)Nc1cccc(C(F)F)c1")
97.5
>>> assay_result("CC(C)(CF)C(=O)NCc1cc(-c2nn(-c3ccc(Cl)cc3)c(=O)[nH]2)c(Cl)cc1F")
93.9

State measured inhibition at 10 µM of the compound Cc1ccc(CNC(=O)C(C)(C)C)c(C)c1-c1nn(-c2ccc(C#CC3CC3)cc2)c(=O)[nH]1 with Recombinant human mPGES-1 (Homo sapiens, UniProt O14684).
99.5
